Value source: patent US12240825B2

# Target system: Human OX2 receptor (Homo sapiens (Human))
Measurement kind: Kd (nM)
State just the number; it will be interpreted in nM.

# input Enter Kd (test system Human OX2 receptor (Homo sapiens (Human))) for COc1cc(F)c(CN2C(=O)N(c3cnc(OC)c(OC)c3)S(=O)(=O)c3ccccc32)c(F)c1 [reference compound]
# output 0.75

====

# Target system: Human OX2 receptor (Homo sapiens (Human), UniProt O43614)
# Sequence (O43614 whole entry): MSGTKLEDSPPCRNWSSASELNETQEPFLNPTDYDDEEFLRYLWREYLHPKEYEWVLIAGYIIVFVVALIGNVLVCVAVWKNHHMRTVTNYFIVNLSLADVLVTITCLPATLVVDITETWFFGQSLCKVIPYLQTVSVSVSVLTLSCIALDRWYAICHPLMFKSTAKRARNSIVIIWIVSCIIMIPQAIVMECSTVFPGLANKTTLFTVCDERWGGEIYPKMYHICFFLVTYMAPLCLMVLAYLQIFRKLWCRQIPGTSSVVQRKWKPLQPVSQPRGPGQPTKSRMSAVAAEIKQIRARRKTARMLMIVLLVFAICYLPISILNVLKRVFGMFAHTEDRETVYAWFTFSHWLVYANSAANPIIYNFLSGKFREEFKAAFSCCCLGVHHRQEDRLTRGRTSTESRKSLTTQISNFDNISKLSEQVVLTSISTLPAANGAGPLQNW
# Run description: [3H]-radioligand binding assay, OX2
# Condition label: competition binding, membranes of SF21 cells, Ki by Cheng-Prusoff
Measurement kind: pKi average OX2

Some molecules with known pKi average OX2 results, for comparison:
molecule="CC(=O)Nc1cc(C(=O)N[C@H]2CCC[C@@H]2COc2ccc(F)cc2)c(-c2ncccn2)cn1 [Example 24]" result=6.6
molecule="CC(=O)Nc1cc(F)c(-n2nccn2)c(C(=O)N[C@H]2CCC[C@@H]2COc2ccc(F)cc2)c1 [Example 1]" result=7.3
molecule="O=C(N[C@H]1CCC[C@@H]1COc1ccc(F)cc1)c1nc(NCC(F)F)ccc1-n1nccn1 [Example 19]" result=6.6
molecule="CC(=O)Nc1cnc(-n2nccn2)c(C(=O)N[C@H]2CCC[C@@H]2COc2ccc(F)cc2)c1 [Example 25]" result=5.5
molecule="CC(=O)Nc1ccc(-n2nccn2)c(C(=O)N(C(C)C)[C@H]2CCC[C@@H]2COc2ccc(F)cc2)n1 [Example 7]" result=<5.3
molecule="CC(=O)Nc1ccc(-c2ncccn2)c(C(=O)N[C@H]2CCC[C@@H]2COc2ccc(F)cc2)c1F [Example 2]" result=5.6
molecule="CC(=O)Nc1ccc(-c2ncccn2)c(C(=O)N(C)[C@H]2CCC[C@@H]2COc2ccc(F)cc2)n1 [Example 18]" result=6.8
molecule="CC(=O)Nc1ccc(-n2nccn2)c(C(=O)N[C@H]2CCC[C@@H]2COc2ccc(Cl)cc2)n1 [Example 6]" result=<5.2

# input Given the molecule COCC(=O)Nc1ccc(-c2ncccn2)c(C(=O)N[C@H]2CCC[C@@H]2COc2ccc(F)cc2)n1 [Example 16] , write its reported pKi average OX2.
# output <5.1

# input Given the molecule CC(=O)Nc1ccc(-n2nccn2)c(C(=O)N[C@H]2CCC[C@@H]2COc2ccc(F)cc2)n1 [Example 3] , write its reported pKi average OX2.
# output 5.4

====

# Target system: UniProtKB O43613
# Run description: [3H]-radioligand binding assay, OX1
# Condition label: competition binding, membranes of SF21 cells, Ki by Cheng-Prusoff
The reader will find reported pKi average OX1 values listed item by item below.
Give the figure only, with no unit attached.

Some compounds with known pKi average OX1 results, for comparison:
sample_smiles=O=C(N[C@H]1CCC[C@@H]1COc1ccc(F)cc1)c1nc(NC(=O)C2CC2)ccc1-n1nccn1 target_system="UniProtKB O43613" measurement_kind="pKi average OX1" quantitative_readout=7.8
sample_smiles=CC(=O)Nc1ccc(-c2ncccn2)c(C(=O)N(C)[C@H]2CCC[C@@H]2COc2ccc(F)cc2)n1 target_system="UniProtKB O43613" measurement_kind="pKi average OX1" quantitative_readout=8.6
sample_smiles=CC(=O)Nc1ccc(-n2nccn2)c(C(=O)N[C@H]2CCC[C@@H]2COc2ccc(F)cn2)n1 target_system="UniProtKB O43613" measurement_kind="pKi average OX1" quantitative_readout=7.9

# input Given the compound `O=C(N[C@H]1CCC[C@@H]1COc1ccc(F)cc1)c1nc(NC(=O)C(F)F)ccc1-n1nccn1` , write its reported pKi average OX1.
# output 7.9

# input Given the compound `Nc1ccc(-c2ncc(F)cn2)c(C(=O)N[C@H]2CCC[C@@H]2COc2ccc(F)cc2)n1` , write its reported pKi average OX1.
# output 8.5

# input Given the compound `O=C(N[C@H]1CCC[C@@H]1COc1ccc(F)cc1)c1nc(NCC(F)F)ccc1-n1nccn1` , write its reported pKi average OX1.
# output 8.8

# input Given the compound `CC(=O)Nc1cc(C(=O)N[C@H]2CCC[C@@H]2COc2ccc(F)cc2)c(-n2nccn2)cn1` , write its reported pKi average OX1.
# output 8.9

====

The reader will find reported pKi average OX1 values listed item by item below.
# Target system: Human OX1 receptor (Homo sapiens (Human), UniProt O43613)
# Sequence (O43613 whole entry): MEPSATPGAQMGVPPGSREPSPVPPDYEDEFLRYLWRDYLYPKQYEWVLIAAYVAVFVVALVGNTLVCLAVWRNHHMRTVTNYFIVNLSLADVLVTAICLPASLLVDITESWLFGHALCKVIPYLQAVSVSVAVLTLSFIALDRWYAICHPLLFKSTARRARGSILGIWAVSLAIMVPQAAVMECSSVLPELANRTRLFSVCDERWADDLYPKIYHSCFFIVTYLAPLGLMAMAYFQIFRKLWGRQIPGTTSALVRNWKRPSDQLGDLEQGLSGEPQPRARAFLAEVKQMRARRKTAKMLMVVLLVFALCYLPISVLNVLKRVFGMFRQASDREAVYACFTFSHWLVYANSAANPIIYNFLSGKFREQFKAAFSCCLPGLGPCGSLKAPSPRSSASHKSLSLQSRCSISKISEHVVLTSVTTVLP
# Run description: [3H]-radioligand binding assay, OX1
# Condition label: competition binding, membranes of SF21 cells, Ki by Cheng-Prusoff

Some compounds with known pKi average OX1 results, for comparison:
sample_smiles=COCC(=O)Nc1ccc(-c2ncccn2)c(C(=O)N[C@H]2CCC[C@@H]2COc2ccc(F)cc2)n1 target_system="Human OX1 receptor (Homo sapiens (Human), UniProt O43613)" measurement_kind="pKi average OX1" result=7.7
sample_smiles=COC(=O)Nc1ccc(-n2nccn2)c(C(=O)N[C@H]2CCC[C@@H]2COc2ccc(F)cc2)n1 target_system="Human OX1 receptor (Homo sapiens (Human), UniProt O43613)" measurement_kind="pKi average OX1" result=8.1
sample_smiles=CC(=O)Nc1cc(C(=O)N[C@H]2CCC[C@@H]2COc2ccc(F)cc2)c(-c2ncccn2)cn1 target_system="Human OX1 receptor (Homo sapiens (Human), UniProt O43613)" measurement_kind="pKi average OX1" result=8.3

# context switch: different compound, same pKi average OX1
# input Enter pKi average OX1 (test system Human OX1 receptor (Homo sapiens (Human), UniProt O43613)) for `CC(=O)Nc1ccc(-n2nccn2)c(C(=O)N[C@H]2CCC[C@@H]2COc2ccc(F)cc2F)n1`
# output 9.1

====

The reader will find reported Kb values listed item by item below.
# Target system: Human OX2 receptor (Homo sapiens (Human))
# Run description: IPone accumulation assay, CHO cells expressing OX2
# Assay type: cell-based
# Condition label: antagonism of orexin A (EC80 40 nM)-induced inositol phosphate turnover, read-out: fpKb average OX2 (converted)

Some compounds with known Kb results, for comparison:
sample_smiles=CC(=O)Nc1ccc(-n2nccn2)c(C(=O)N(C(C)C)[C@H]2CCC[C@@H]2COc2ccc(F)cc2)n1 measurement_kind=Kb result="> 794 nM"
sample_smiles=CC(=O)Nc1cc(F)c(-n2nccn2)c(C(=O)N[C@H]2CCC[C@@H]2COc2ccc(F)cc2)c1 measurement_kind=Kb result="> 63.1 nM"
sample_smiles=O=C(N[C@H]1CCC[C@@H]1COc1ccc(F)cc1)c1nc(NCC(F)F)ccc1-n1nccn1 measurement_kind=Kb result="> 501 nM"
sample_smiles=CC(=O)Nc1ccc(-c2ncccn2)c(C(=O)N[C@H]2CCC[C@@H]2COc2ccc(Cl)cc2)n1 measurement_kind=Kb result="> 631 nM"
sample_smiles=COCC(=O)Nc1ccc(-c2ncccn2)c(C(=O)N[C@H]2CCC[C@@H]2COc2ccc(F)cc2)n1 measurement_kind=Kb result="> 1000 nM"
sample_smiles=O=C(N[C@H]1CCC[C@@H]1COc1ccc(F)cc1)c1nc(NC(=O)C(F)F)ccc1-n1nccn1 measurement_kind=Kb result="> 1000 nM"
sample_smiles=CC(=O)Nc1cc(C(=O)N[C@H]2CCC[C@@H]2COc2ccc(F)cc2)c(-c2ncccn2)cn1 measurement_kind=Kb result="> 398 nM"
sample_smiles=O=C(N[C@H]1CCC[C@@H]1COc1ccc(F)cc1)c1nc(NCCO)ccc1-n1nccn1 measurement_kind=Kb result="> 501 nM"

# input Given the compound `CC(=O)Nc1ccc(-c2ncc(F)cn2)c(C(=O)N[C@H]2CCC[C@@H]2COc2ccc(F)cc2)n1` , write its reported Kb.
# output > 794 nM

====

# Target system: Human OX1 receptor (Homo sapiens (Human))
Measurement kind: pKd
The quantity pKd is defined as the negative base-10 logarithm of the molar concentration.

# input Enter pKd (test system Human OX1 receptor (Homo sapiens (Human))) for COc1cc(F)c(CN2C(=O)N(c3cnc(OC)c(OC)c3)S(=O)(=O)c3ccccc32)c(F)c1 [reference compound]
# output 8.82

====

# Target system: Human OX2 receptor (Homo sapiens (Human))
# Run description: [3H]-radioligand binding assay, OX2
# Condition label: competition binding, membranes of SF21 cells, Ki by Cheng-Prusoff
# Text: Cloning, Baculovirus generation, large-scale infection of SF21 cells and membrane preparation. Human OX1 or OX2 receptor were cloned into Invitrogen's (ThermoFisher Scientific, UK) Bac-to-Bac Baculovirus Expression System. P0 baculovirus was generated by transfecting SF9 cells with bacmid DNA using Cellfectin® II transfection reagent (ThermoFisher Scientific, UK, Catalog number 10362-100). Following P0 generation P1 virus was then generated ready for large scale infection and membrane preparation. […]
Measurement kind: pKi average OX2

Some compounds with known pKi average OX2 results, for comparison:
sample_smiles=CC(=O)Nc1ccc(-n2nccn2)c(C(=O)N[C@H]2CCC[C@@H]2COc2ccc(F)c(F)c2)n1 result=5.9
sample_smiles=O=C(N[C@H]1CCC[C@@H]1COc1ccc(F)cc1)c1nc(NC(=O)C2CC2)ccc1-n1nccn1 result=<6.0
sample_smiles=O=C(N[C@H]1CCC[C@@H]1COc1ccc(F)cc1)c1nc(NC(=O)C(F)F)ccc1-n1nccn1 result=<5.8
sample_smiles=CC(=O)Nc1cc(C(=O)N[C@H]2CCC[C@@H]2COc2ccc(F)cc2)c(-n2nccn2)cn1 result=6.5

# input Given the compound `O=C(N[C@H]1CCC[C@@H]1COc1ccc(F)cc1)c1nc(NCCO)ccc1-n1nccn1` , write its reported pKi average OX2.
# output 5.8
